Kindly state protein stability index for each of the entries shown.
B1: CDC25B (parent)
chain: ELKTFRLKTRSWAGERSRRELCSR

- Variants of: B1
- Assay Comment: protein stability index of a GFP-peptide fusion (GPS, HEK-293T) (PSI 1-6); higher = more stable;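 further: lentivirally expressed fusions sorted by FACS into six bins by GFP to DsRed ratio, PSI derived from sequencing read proportions per bin multiplied by bin number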
- Condition Description: c terminus: a fixed tail appended

>  <Item Sequence>
ELKTFRLKTRSWAGERSRMELCSR [R19M]

>  <Recorded Endpoint>
protein stability index

>  <Result>
3

$$$$

Quick request: protein stability index for each listed item, please.
1. ELKTFRLKRRSWAGERSRRELCSR [T9R]
2. ELKTFRLKTRSTAGERSRRELCSR [W12T]
3. ELKTFRLKTRSWAEERSRRELCSR [G14E]
4. ELKTFRLKTRSWAGERSRDELCSR [R19D]

1. 4.65
2. 3.38
3. 3.16
4. 2.88

Provide protein stability index values for the following items, in order.
1. ELKTFRLKTRSWAGERSRRKLCSR [E20K]
2. ELKTFRLKTRSWLGERSRRELCSR [A13L]
3. ELKTFRLKTRSWADERSRRELCSR [G14D]

[3.47, 2.62, 3.62]

Below is a list of variants. For each, state its recorded protein stability index.
1. ELKTFRLKTRSWAGERSRRELCER [S23E]
2. ELKTFRLKTRSWAGERSRRELCSF [R24F]
3. ELKTFRLKCRSWAGERSRRELCSR [T9C]
4. ELKTFRLKTRSWAGERSYRELCSR [R18Y]
5. ELKTFRLKTRSWQGERSRRELCSR [A13Q]
6. ELKTFRLKTRSWAGERSGRELCSR [R18G]
7. ELKTFRLKTRSWAGERSRRELLSR [C22L]
8. ELKTFRLKTRSWAGPRSRRELCSR [E15P]

1: 3.53; 2: 1.85; 3: 3.58; 4: 2.58; 5: 3.01; 6: 2.95; 7: 2.79; 8: 3.2
